# System: peptide-forming enzyme (Mono S fraction enzyme)
# PROCEDURE_TEXT: Enzyme inhibitors: effects on the production of L-alanyl-L-glutamine
# Format: biochemical, Empedobacter brevis
# CONDITION: inhibitor at 10 mM; borate buffer pH 9.0; 25° C., 5 minutes; 100 = absence of enzyme inhibitor
MEASURED_ATTRIBUTE: Relative activity of L-Ala-L-Gln production (%)
Quick reminder: number only, in %, skip the unit.

Answered cases to consult:
c1cnc2c(c1)ccc1cccnc12 :: 96
N=C(N)Nc1ccc(C(=O)Oc2ccc([N+](=O)[O-])cc2)cc1 [p-Nitrophenyl-p′-guanidino benzoate, p-nitrophenyl-p′-guanidinobenzoate] :: 0.1
O=S(=O)(F)Cc1ccccc1 [Phenylmethylsulfonyl fluoride, phenylmethylsulfonyl fluoride] :: 115

Incoming: Item CCN1C(=O)C=CC1=O [N-Ethyl maleimide] has what recorded Relative activity of L-Ala-L-Gln production?
Outgoing: 110

Incoming: Item `O=C(O)CN(CCN(CC(=O)O)CC(=O)O)CC(=O)O` has what recorded Relative activity of L-Ala-L-Gln production?
Outgoing: 96

###

# Test system: peptide-forming enzyme (Mono S fraction enzyme)
# PROCEDURE_TEXT: Enzyme substrate specificity (1)-(10), (13), (14): peptide production
# Format: biochemical, Empedobacter brevis
# CONDITION: L-amino acid methyl ester hydrochloride 100 mM, L-amino acid 150 mM, pH 9.0, 25° C., 3 hours
Where a SMILES comes first, the peptide text is derived from it.
MEASURED_ATTRIBUTE: Formed peptide (mM)
Quick reminder: number only, in mM, skip the unit.

Answered cases to consult:
NC(=O)C[C@H](N)C(=O)N[C@@H](CCC(=O)O)C(=O)O [L-Asn-L-] (H-Asn-Glu-OH) :: 10.2
CC(C)C[C@H](NC(=O)[C@@H](N)[C@@H](C)O)C(=O)O [L-Thr-L-Leu] (H-Thr-Leu-OH) :: 28.4
CSCC[C@H](NC(=O)[C@@H](N)CCCCN)C(=O)O :: 6.8
CC[C@H](C)[C@H](N)C(=O)N[C@@H](CCSC)C(=O)O [L-Ile-L-Met] (H-Ile-Met-OH) :: 10.0
C[C@@H](O)[C@H](N)C(=O)NCC(=O)O [L-Thr-Gly] (H-Thr-Gly-OH) :: 9.4
CC(C)[C@H](N)C(=O)N[C@@H](CO)C(=O)O [L-Val-L-Ser] (H-Val-Ser-OH) :: 30.8

Incoming: Item CC[C@H](C)[C@H](N)C(=O)N[C@@H](Cc1ccccc1)C(=O)O [L-Ile-L-Phe] (H-Ile-Phe-OH) has what recorded Formed peptide?
Outgoing: 5.2

Incoming: Item N[C@@H](CO)C(=O)N[C@@H](CO)C(=O)O [L-Ser-L-Ser] (H-Ser-Ser-OH) has what recorded Formed peptide?
Outgoing: 38.0

###

# System: enzyme derived from Sphingobacterium sp. strain FERM BP-8124 (SP-Sepharose HP fraction enzyme)
# PROCEDURE_TEXT: Enzyme substrate specificity (11), (12): peptide production
# Assay type: biochemical
# CONDITION: carboxy component 100 mM, L-Gln 150 mM, 0.33 units enzyme, pH 9.0, 25° C., 1.5 hours
# Excerpt: […]
Where a SMILES comes first, the peptide text is derived from it.
MEASURED_ATTRIBUTE: Produced peptide (Table 15-2) (mM)
Quick reminder: number only, in mM, skip the unit.

Answered cases to consult:
NC(=O)CC[C@H](NC(=O)[C@@H](N)CCCN=C(N)N)C(=O)O [L-Arg-L-Gln] (H-Arg-Gln-OH) :: 17.2
NCC(=O)N[C@@H](CCC(N)=O)C(=O)O [Gly-L-Gln] (H-Gly-Gln-OH) :: 61.1
NC(=O)CC[C@H](NC(=O)[C@@H](N)Cc1ccccc1)C(=O)O [L-Phe-L-Gln] :: 0.8

# next molecule below
Incoming: Item NC(=O)CC[C@H](NC(=O)[C@@H]1CCCN1)C(=O)O [L-Pro-L-Gln] (H-Pro-Gln-OH) has what recorded Produced peptide (Table 15-2)?
Outgoing: 1.8
